- ASSAY_SYSTEM: recombinant human ACC2 (Homo sapiens, UniProt O00763)
- Construct: a cDNA encoding human ACC2 (27-2458) was cloned from human kidney cDNA library (Clontech); His-tag (N); made in house; host or cells: Sf-9 insect cells (Bac-to-Bac baculovirus)
- Sequence (O00763 27-2458): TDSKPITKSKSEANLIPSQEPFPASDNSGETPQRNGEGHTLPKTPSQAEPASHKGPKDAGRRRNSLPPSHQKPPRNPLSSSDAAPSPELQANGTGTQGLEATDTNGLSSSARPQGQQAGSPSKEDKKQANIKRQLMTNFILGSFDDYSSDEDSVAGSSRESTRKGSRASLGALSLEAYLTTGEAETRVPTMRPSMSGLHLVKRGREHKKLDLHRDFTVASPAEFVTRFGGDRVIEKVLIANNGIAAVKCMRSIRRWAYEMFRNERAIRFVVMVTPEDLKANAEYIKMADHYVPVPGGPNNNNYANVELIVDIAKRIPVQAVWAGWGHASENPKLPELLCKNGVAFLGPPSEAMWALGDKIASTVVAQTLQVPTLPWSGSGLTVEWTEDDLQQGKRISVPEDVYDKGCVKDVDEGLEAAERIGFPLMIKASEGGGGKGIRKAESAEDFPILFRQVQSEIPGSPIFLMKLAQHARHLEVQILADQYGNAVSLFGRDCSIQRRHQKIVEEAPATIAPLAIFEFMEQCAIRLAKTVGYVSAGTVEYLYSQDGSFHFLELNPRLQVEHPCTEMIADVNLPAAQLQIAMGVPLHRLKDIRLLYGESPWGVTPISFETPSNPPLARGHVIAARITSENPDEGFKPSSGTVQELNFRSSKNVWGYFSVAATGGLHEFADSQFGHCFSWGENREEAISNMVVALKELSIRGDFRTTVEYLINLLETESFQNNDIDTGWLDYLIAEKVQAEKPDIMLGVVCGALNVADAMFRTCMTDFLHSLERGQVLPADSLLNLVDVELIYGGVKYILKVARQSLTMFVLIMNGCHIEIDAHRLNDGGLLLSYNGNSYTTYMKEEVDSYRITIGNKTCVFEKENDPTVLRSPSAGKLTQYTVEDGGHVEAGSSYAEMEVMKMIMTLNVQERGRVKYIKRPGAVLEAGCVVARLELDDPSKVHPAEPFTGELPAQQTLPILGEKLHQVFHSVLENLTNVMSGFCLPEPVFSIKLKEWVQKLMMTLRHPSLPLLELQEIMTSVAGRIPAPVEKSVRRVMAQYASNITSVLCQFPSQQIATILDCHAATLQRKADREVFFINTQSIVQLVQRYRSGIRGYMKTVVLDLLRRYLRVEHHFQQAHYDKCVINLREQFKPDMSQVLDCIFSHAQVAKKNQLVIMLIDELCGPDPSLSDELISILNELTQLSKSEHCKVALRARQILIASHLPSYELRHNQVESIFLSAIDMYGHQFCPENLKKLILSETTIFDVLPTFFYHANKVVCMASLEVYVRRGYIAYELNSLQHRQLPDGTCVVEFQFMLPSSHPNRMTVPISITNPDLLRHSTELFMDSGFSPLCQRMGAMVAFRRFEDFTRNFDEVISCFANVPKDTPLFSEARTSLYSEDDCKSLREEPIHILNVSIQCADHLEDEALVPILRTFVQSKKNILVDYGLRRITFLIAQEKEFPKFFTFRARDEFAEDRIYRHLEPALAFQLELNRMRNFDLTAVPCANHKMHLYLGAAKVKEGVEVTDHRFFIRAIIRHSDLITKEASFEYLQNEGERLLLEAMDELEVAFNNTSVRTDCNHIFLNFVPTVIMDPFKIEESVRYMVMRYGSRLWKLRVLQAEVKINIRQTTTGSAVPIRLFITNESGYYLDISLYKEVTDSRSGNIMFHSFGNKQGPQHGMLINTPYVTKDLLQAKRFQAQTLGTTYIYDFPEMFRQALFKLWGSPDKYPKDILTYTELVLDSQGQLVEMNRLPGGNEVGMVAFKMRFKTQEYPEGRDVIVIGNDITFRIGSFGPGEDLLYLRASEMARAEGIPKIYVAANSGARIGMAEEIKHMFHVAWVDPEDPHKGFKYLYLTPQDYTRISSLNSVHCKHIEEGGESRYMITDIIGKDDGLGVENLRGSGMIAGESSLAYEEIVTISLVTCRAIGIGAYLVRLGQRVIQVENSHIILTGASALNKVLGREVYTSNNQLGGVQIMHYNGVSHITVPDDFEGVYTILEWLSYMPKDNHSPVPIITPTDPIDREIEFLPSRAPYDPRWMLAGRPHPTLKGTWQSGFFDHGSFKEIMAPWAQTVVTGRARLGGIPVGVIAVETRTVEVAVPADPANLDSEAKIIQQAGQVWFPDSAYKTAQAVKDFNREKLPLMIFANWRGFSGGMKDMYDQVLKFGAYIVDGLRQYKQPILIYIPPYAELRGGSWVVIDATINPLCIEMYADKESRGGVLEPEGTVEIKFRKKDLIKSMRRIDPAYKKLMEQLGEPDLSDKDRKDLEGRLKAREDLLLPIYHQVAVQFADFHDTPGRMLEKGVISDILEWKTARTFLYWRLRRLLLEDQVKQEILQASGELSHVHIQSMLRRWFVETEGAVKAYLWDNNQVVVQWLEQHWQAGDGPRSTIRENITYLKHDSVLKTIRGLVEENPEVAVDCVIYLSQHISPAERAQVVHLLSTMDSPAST
- ASSAY_PROTOCOL: Measurement of inhibitory activity on human ACC2 (MALDI-TOF MS, acetyl CoA to malonyl CoA conversion)
- Assay type: biochemical
- CONDITION_SUMMARY: inhibition activity on human ACC2, untitled table (Table 81); read-out: IC50
QUANTITY_KIND: IC50 (nM)

Look over these answered cases.
# MOLECULE, ASSAY_SYSTEM, IC50 [nM]
rows = [
    ("CCNC(=O)c1cc(C(=O)N[C@@H](C)/C=C/c2cnn(Cc3ccc(OC)cc3Cl)c2)ccn1 [Compound I-317]", "recombinant human ACC2 (Homo sapiens, UniProt O00763)", 350),
    ("CCNC(=O)c1cc(C(=O)N[C@@H](C)/C=C/c2cnn(Cc3c(C)cc(C)cc3C)c2)ccn1 [Compound I-315]", "recombinant human ACC2 (Homo sapiens, UniProt O00763)", 3900),
    ("COCCOc1ccc(Oc2ccc(/C=C/[C@H](C)NC(C)=O)cn2)c(Cl)c1 [Compound I-296]", "recombinant human ACC2 (Homo sapiens, UniProt O00763)", 110),
    ("CC(=O)N[C@@H](C)/C=C/c1ccc(Oc2ccc(C3CC3)cc2Cl)nc1 [Compound I-266]", "recombinant human ACC2 (Homo sapiens, UniProt O00763)", 26),
    ("CC(=O)N[C@@H](C)/C=C/c1ccc(Oc2cncc(OC(C)C)c2)nc1 [Compound I-301]", "recombinant human ACC2 (Homo sapiens, UniProt O00763)", 1900),
    ("CC(=O)N[C@@H](C)/C=C/c1cnn(Cc2ccc(OCC3CC3)c(Cl)c2Cl)c1 [Compound I-262]", "recombinant human ACC2 (Homo sapiens, UniProt O00763)", 660),
    ("CC(=O)N[C@@H](C)/C=C/c1ccc(Oc2ccc(C3CC3)c(Cl)c2)nc1 [Compound I-298]", "recombinant human ACC2 (Homo sapiens, UniProt O00763)", 58),
    ("CC(=O)N[C@@H](C)/C=C/c1cnc(Oc2ccc(NC3CCCC3)c(Cl)c2)nc1 [Compound I-285]", "recombinant human ACC2 (Homo sapiens, UniProt O00763)", 96),
]

1 = CC(=O)N[C@@H](C)/C=C/c1ccc(Oc2ccc(CCC3CC3)cc2Cl)nc1 [Compound I-287]
2 = CC(=O)N[C@@H](C)/C=C/c1ccc(Oc2cc(F)cc(OC(C)C)c2)nc1 [Compound I-277]
3 = CCOc1ccc(F)c(Oc2ccc(/C=C/[C@H](C)NC(C)=O)cn2)c1 [Compound I-278]
4 = CCOc1ccc(Oc2cnc(/C=C/[C@H](C)NC(C)=O)cn2)cc1Cl [Compound I-299]
Highest IC50 first, then in falling order down to the smallest. // list labels; follow requested order 2, 3, 4, 1
(2: 230 nM, 3: 79 nM, 4: 38 nM, 1: 18 nM)

P = CC/C(=C\c1ccc(Oc2cnc(OCC3CC3)cc2Cl)nc1)C(C)NC(C)=O (centres unmarked) [Compound I-295]
Q = CCNC(=O)c1cc(C(=O)N[C@@H](C)/C=C/c2cnn(Cc3ccc(OC(F)(F)F)cc3)c2)ccn1 [Compound I-308]
Between P and Q , whose recorded IC50 is greater? Lab log: write the label of the selected item as the result. P

A = CCNC(=O)c1cc(C(=O)N[C@@H](C)/C=C/c2cnn(Cc3ccc(F)c(Cl)c3)c2)ccn1 [Compound I-314]
B = CC(=O)N[C@@H](C)/C=C/c1ccc(Oc2ccc(Cl)cc2Cl)nc1 [Compound I-273]
C = CCCc1cncc(Oc2ccc(/C=C/[C@H](C)NC(C)=O)cn2)c1 [Compound I-302]
D = CC(=O)N[C@@H](C)/C=C/c1ccc(Oc2ccc(-c3ccccc3)cc2Cl)nc1 [Compound I-267]
Ordering: ascending IC50. // list labels; follow requested order D, B, C, A
(D: 44 nM, B: 99 nM, C: 510 nM, A: 960 nM)
